Test system: human Factor 11 mRNA
Assay: Dose-dependent inhibition of human Factor 11 in HepG2 cells, lipofectin 9.375-75 nM (Example 4)
Type: cell-based
Settings: 75 nM, relative to untreated control cells
Procedure: Cells were plated at a density of 10,000 cells per well and transfected using lipofectin reagent with 9.375 nM, 18.75 nM, 37.5 nM and 75 nM concentrations of antisense oligonucleotide, as specified in Table 9. After a treatment period of approximately 16 hours, RNA was isolated from the cells and Factor 11 mRNA levels were measured by quantitative real-time PCR. […] Factor 11 mRNA levels were adjusted according to total RNA content, as measured by RIBOGREEN. […]
Strand notation (5' to 3'): a small letter for the sugar, then the base; units joined by * are phosphorothioate-linked, units joined directly phosphodiester-linked; [ ] holds rarer units or linkages, { } end groups; capitals alone tell only the bases. e = 2'-O-(2-methoxyethyl) (MOE); [5mC] = 5-methylcytosine; d = 2'-deoxy (DNA)
In this section we review reported percent inhibition of Factor 11 at 75 nM values for a set of substances.
Answer with a number only, understood to be in %.

{"SUBSTANCE": "416945 (antisense eA*eA*dT*dG*dT*d[5mC]*dT*dT*dT*dG*dT*dT*dG*d[5mC]*dA*eA*eG*e[5mC]*eG*e[5mC]) [compound 416945]", "percent inhibition of Factor 11 at 75 nM (%)": 65}
{"SUBSTANCE": "417003 (antisense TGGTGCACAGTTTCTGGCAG; 2-13-5 gapmer chemistry, further chemistry not given here) [compound 417003]", "percent inhibition of Factor 11 at 75 nM (%)": 56}

The substance 416864 (antisense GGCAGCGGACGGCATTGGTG; 5-10-5 gapmer, further chemistry not given here) [compound 416864] showed percent inhibition of Factor 11 at 75 nM equal to 78

----------
assay: Hematology assays in cynomolgus monkeys (Example 45); type: in vivo; conditions: day −5
In this section we review reported neutrophils values for a set of substances.
Answer with a number only, understood to be in %.

Here are 2 substances together with their reported answers.
{"SUBSTANCE": "ISIS 417002: MOE gapmer, nucleobases 1275 to 1318 of SEQ ID NO: 1 (Table 8) (antisense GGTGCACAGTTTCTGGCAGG; MOE gapmer, wing and gap sizes not given here)", "neutrophils [%]": 43}
{"SUBSTANCE": "ISIS 416864: MOE gapmer, nucleobases 1275 to 1318 of SEQ ID NO: 1 (Table 8) (antisense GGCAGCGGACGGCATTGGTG; MOE gapmer, wing and gap sizes not given here)", "neutrophils [%]": 51}

The substance ISIS 416858: MOE gapmer, nucleobases 1275 to 1318 of SEQ ID NO: 1 (Table 8) (antisense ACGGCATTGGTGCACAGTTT; MOE gapmer, wing and gap sizes not given here) showed neutrophils equal to 46

----------
assay: Hematology assays in cynomolgus monkeys (Example 45); assay type: in vivo; details: day 57; escalating dose regimen
PROPERTY NAME: hematocrit (%)
Answer with a number only, understood to be in %.

{"SUBSTANCE": "ISIS 417002: MOE gapmer, nucleobases 1275 to 1318 of SEQ ID NO: 1 (Table 8) (antisense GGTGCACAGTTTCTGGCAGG; MOE gapmer, wing and gap sizes not given here)", "MEASUREMENT": 38}
{"SUBSTANCE": "ISIS 416858: MOE gapmer, nucleobases 1275 to 1318 of SEQ ID NO: 1 (Table 8) (antisense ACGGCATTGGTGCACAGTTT; MOE gapmer, wing and gap sizes not given here)", "MEASUREMENT": 41}
{"SUBSTANCE": "ISIS 416864: MOE gapmer, nucleobases 1275 to 1318 of SEQ ID NO: 1 (Table 8) (antisense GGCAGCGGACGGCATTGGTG; MOE gapmer, wing and gap sizes not given here)", "MEASUREMENT": 42}

The substance ISIS 416838: MOE gapmer, nucleobases 1018 to 1042 of SEQ ID NO: 1 (Table 6) (antisense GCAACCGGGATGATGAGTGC; MOE gapmer, wing and gap sizes not given here) showed hematocrit equal to 43

The substance ISIS 416850: MOE gapmer, nucleobases 1275 to 1318 of SEQ ID NO: 1 (Table 8) (antisense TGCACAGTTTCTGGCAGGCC; MOE gapmer, wing and gap sizes not given here) showed hematocrit equal to 42
